target: UniProtKB P00533; conditions: kb
Sequence (P00533 whole entry, looked up): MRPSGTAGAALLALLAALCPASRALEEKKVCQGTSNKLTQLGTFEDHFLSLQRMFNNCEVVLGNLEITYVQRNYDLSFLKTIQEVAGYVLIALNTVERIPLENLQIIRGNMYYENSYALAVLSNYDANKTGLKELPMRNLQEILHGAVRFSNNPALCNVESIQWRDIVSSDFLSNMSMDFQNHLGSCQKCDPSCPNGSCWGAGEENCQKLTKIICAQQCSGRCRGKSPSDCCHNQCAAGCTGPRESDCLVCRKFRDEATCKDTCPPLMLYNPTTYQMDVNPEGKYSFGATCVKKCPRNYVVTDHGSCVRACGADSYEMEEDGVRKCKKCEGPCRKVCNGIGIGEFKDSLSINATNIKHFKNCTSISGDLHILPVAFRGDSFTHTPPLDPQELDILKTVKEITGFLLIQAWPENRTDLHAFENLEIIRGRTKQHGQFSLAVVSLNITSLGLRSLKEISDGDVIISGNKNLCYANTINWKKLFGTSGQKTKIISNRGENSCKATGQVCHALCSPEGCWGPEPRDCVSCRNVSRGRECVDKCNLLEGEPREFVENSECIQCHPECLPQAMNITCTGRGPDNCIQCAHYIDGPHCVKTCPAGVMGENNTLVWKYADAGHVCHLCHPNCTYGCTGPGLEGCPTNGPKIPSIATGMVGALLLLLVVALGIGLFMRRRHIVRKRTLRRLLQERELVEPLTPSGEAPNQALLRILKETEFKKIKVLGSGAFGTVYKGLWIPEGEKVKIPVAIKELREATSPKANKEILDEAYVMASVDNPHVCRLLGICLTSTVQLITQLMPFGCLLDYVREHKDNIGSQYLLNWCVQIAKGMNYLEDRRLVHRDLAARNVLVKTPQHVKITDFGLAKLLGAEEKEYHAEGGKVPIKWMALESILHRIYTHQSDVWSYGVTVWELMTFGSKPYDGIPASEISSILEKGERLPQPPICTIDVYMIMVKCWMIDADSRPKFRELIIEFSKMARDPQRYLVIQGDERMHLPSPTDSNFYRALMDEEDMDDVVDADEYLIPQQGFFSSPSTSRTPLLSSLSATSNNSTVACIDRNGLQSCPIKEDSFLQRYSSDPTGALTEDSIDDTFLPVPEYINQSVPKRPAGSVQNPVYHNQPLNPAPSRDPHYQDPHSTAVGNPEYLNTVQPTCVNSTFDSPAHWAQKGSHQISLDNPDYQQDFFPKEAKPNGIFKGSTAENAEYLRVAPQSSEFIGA
Quick rule for you: IC50 under 20 nM gets True, anything else gets False.

Exercise: IC50 under 20 nM? Item: COc1cc2ncnc(Nc3cccc(Cl)c3F)c2cc1OC1CCN(C(=O)c2ccccn2)CC1
Solution: True

Exercise: IC50 under 20 nM? Item: COc1cc2ncnc(Nc3cccc(Cl)c3F)c2cc1O[C@H]1C[C@H](C(=O)NCCNC(C)=O)N(C)C1
Solution: True

Exercise: IC50 under 20 nM? Item: COc1cc2ncnc(Nc3cccc(Cl)c3F)c2cc1O[C@@H]1CCCN(C(=O)Cc2cccs2)C1
Solution: False

----------
target: EGFR (human); settings: kb
propertyLabel: pIC50
To interpret pIC50, take it as minus log10 of a concentration measured in moles per litre.

structureString: COc1cc2c(Nc3cccc(Cl)c3F)ncnc2cc1OC1CCN(C(=O)Cc2cc(C)no2)CC1
pIC50: 7.33

structureString: COc1cc2c(Nc3cccc(Cl)c3F)ncnc2cc1OC1CCN(C(=O)c2cccnc2)CC1
pIC50: 7.06

structureString: COc1cc2ncnc(Nc3cccc(Cl)c3F)c2cc1OC1CCN(C(=O)c2ccno2)CC1
pIC50: 7.77

structureString: COc1cc2ncnc(Nc3cccc(Cl)c3F)c2cc1O[C@@H]1C[C@@H](C(=O)NCCC#N)N(C)C1
pIC50: 10.20

structureString: COc1cc2ncnc(Nc3cccc(Cl)c3F)c2cc1O[C@H]1C[C@H](C(=O)N[C@H]2COC[C@@H]2O)N(C)C1
pIC50: 9.86

In the following, a different molecule is considered.
# pIC50 (molecule: COc1cc2ncnc(Nc3cccc(Cl)c3F)c2cc1OC1CCN(C(=O)Nc2c(C)noc2C)CC1 ) is 7.77
